Just for reference, paper PMC11785708 is where these values come from.

# assayProcedure: Cell viability MTT assay
# Assay type: cell-based
# testParameters: human, BJ1 cells (normal skin fibroblasts)
measuredAttribute: viability at 5 mg/ml (%)
State just the number; it will be interpreted in %.

Worked examples, 5 compounds total:
1. COc1ccc(C=Nn2c(CN3CCCC3)nc3ccccc3c2=O)cc1 = 87.2
2. COc1cc(C=Nn2c(CN3CCCC3)nc3ccccc3c2=O)cc(OC)c1OC = 92.3
3. CCN(CC)Cc1nc2ccccc2c(=O)n1N=Cc1ccccc1 = 91.5
4. Cc1ccc(C=Nn2c(CN3CCOCC3)nc3ccccc3c2=O)cc1 = 87.6
5. O=c1c2ccccc2nc(CN2CCCC2)n1N=Cc1ccccc1 = 88.4

Request: Indicate its recorded viability at 5 mg/ml; the compound in question is O=c1c2ccccc2nc(CN2CCCC2)n1N=Cc1ccc(Cl)cc1
Response: 93.5

Request: Indicate its recorded viability at 5 mg/ml; the compound in question is O=c1c2ccccc2nc(CN2CCCC2)n1N=Cc1ccc([N+](=O)[O-])cc1
Response: 88.1

###

zone of inhibition at 20000 µg/mL: recorded values
# Test system: C. albicans ATCC 10231
# assayProcedure: Agar well diffusion, C. albicans
# Type: cell-based
# testParameters: Candida albicans, ATCC10231; 100 μl of test compound 20 mg/ml in DMF; ciprofloxacin and fluconazole 30 μg/ml; 24 h; mean ± SD; read-out: diameters of inhibition zone, C. albicans ATCC 10231
State just the number; it will be interpreted in mm.

Worked examples, 3 compounds total:
1. Cc1ccc(C=Nn2c(CN3CCCCC3)nc3ccccc3c2=O)cc1 [Compound 23] = 11
2. CCN(CC)Cc1nc2ccccc2c(=O)n1N=Cc1cc(OC)c(OC)c(OC)c1 [Compound 13] = 12
3. CCN(CC)Cc1nc2ccccc2c(=O)n1N=Cc1ccc([N+](=O)[O-])cc1 [Compound 14] = 12

Request: Indicate its recorded zone of inhibition at 20000 µg/mL; the compound in question is O=c1c2ccccc2nc(CN2CCCC2)n1N=Cc1ccc(Cl)cc1 [Compound 16]
Response: 13

Request: Indicate its recorded zone of inhibition at 20000 µg/mL; the compound in question is O=c1c2ccccc2nc(CN2CCCC2)n1N=Cc1ccccc1 [Compound 15]
Response: 11

Request: Indicate its recorded zone of inhibition at 20000 µg/mL; the compound in question is COc1ccc(C=Nn2c(CN3CCCC3)nc3ccccc3c2=O)cc1 [Compound 18]
Response: 13

Request: Indicate its recorded zone of inhibition at 20000 µg/mL; the compound in question is OC(Cn1cncn1)(Cn1cncn1)c1ccc(F)cc1F [Fluconazole, reference compound]
Response: 20

Request: Indicate its recorded zone of inhibition at 20000 µg/mL; the compound in question is O=c1c2ccccc2nc(CN2CCOCC2)n1N=Cc1ccccc1 [Compound 27]
Response: 13

Request: Indicate its recorded zone of inhibition at 20000 µg/mL; the compound in question is Cc1ccc(C=Nn2c(CN3CCOCC3)nc3ccccc3c2=O)cc1 [Compound 29]
Response: 13

###

# System: B. subtilis ATCC 6633
# assayProcedure: Agar well diffusion, B. subtilis
# Type: cell-based
# testParameters: Bacillus subtilis, ATCC6633; 100 μl of test compound 20 mg/ml in DMF; ciprofloxacin and fluconazole 30 μg/ml; 24 h; mean ± SD; read-out: diameters of inhibition zone, B. subtilis ATCC 6633
zone of inhibition at 20000 µg/mL: recorded values
State just the number; it will be interpreted in mm.

1. O=c1c2ccccc2nc(CN2CCCC2)n1N=Cc1ccccc1 [Compound 15] = 10
2. Cc1ccc(C=Nn2c(CN3CCOCC3)nc3ccccc3c2=O)cc1 [Compound 29] = 14
3. CCN(CC)Cc1nc2ccccc2c(=O)n1N=Cc1ccccc1 [Compound 9] = 15
4. O=C(O)c1cn(C2CC2)c2cc(N3CCNCC3)c(F)cc2c1=O [Ciprofloxacin, reference compound] = 33

Request: Indicate its recorded zone of inhibition at 20000 µg/mL; the compound in question is CCN(CC)Cc1nc2ccccc2c(=O)n1N=Cc1ccc(C)cc1 [Compound 11]
Response: 14

###

MIC: recorded values
# System: P. aeruginosa ATCC 27953
# assayProcedure: MIC determination, P. aeruginosa
# Assay type: cell-based, Pseudomonas aeruginosa
# testParameters: Pseudomonas aeruginosa, ATCC27953; serial dilutions, triplicate
State just the number; it will be interpreted in µg/mL.

Worked examples, 3 molecules total:
1) COc1cc(C=Nn2c(CN3CCCC3)nc3ccccc3c2=O)cc(OC)c1OC = 150
2) Cc1ccc(C=Nn2c(CN3CCOCC3)nc3ccccc3c2=O)cc1 = 1500
3) CCN(CC)Cc1nc2ccccc2c(=O)n1N=Cc1ccccc1 = 2000

Request: Indicate its recorded MIC; the molecule in question is O=c1c2ccccc2nc(CN2CCCC2)n1N=Cc1ccc(Cl)cc1
Response: 1500

Request: Indicate its recorded MIC; the molecule in question is O=c1c2ccccc2nc(CN2CCCC2)n1N=Cc1ccc([N+](=O)[O-])cc1
Response: 250

###

zone of inhibition at 20000 µg/mL: recorded values
# Test system: B. subtilis ATCC 6633
# assayProcedure: Agar well diffusion, B. subtilis
# Type: cell-based
# testParameters: Bacillus subtilis, ATCC6633; 100 μl of test compound 20 mg/ml in DMF; ciprofloxacin and fluconazole 30 μg/ml; 24 h; mean ± SD; read-out: diameters of inhibition zone, B. subtilis ATCC 6633
State just the number; it will be interpreted in mm.

Request: Indicate its recorded zone of inhibition at 20000 µg/mL; the compound in question is O=c1c2ccccc2nc(CN2CCOCC2)n1N=Cc1ccc([N+](=O)[O-])cc1
Response: 14

Request: Indicate its recorded zone of inhibition at 20000 µg/mL; the compound in question is COc1cc(C=Nn2c(CN3CCCC3)nc3ccccc3c2=O)cc(OC)c1OC
Response: 14

Request: Indicate its recorded zone of inhibition at 20000 µg/mL; the compound in question is O=c1c2ccccc2nc(CN2CCOCC2)n1N=Cc1ccccc1
Response: 14

Request: Indicate its recorded zone of inhibition at 20000 µg/mL; the compound in question is O=c1c2ccccc2nc(CN2CCCCC2)n1N=Cc1ccc(Cl)cc1
Response: 10

Request: Indicate its recorded zone of inhibition at 20000 µg/mL; the compound in question is O=c1c2ccccc2nc(CN2CCOCC2)n1N=Cc1ccc(Cl)cc1
Response: 12

###

This document collects MIC values reported for B. subtilis ATCC 6633.

1) O=c1c2ccccc2nc(CN2CCCC2)n1N=Cc1ccc([N+](=O)[O-])cc1 [Compound 20] = 500 µg/mL

Request: // fetch MIC for Cc1ccc(C=Nn2c(CN3CCOCC3)nc3ccccc3c2=O)cc1 [Compound 29] ; system: B. subtilis ATCC 6633
Response: 500 µg/mL

Request: // fetch MIC for O=c1c2ccccc2nc(CN2CCCC2)n1N=Cc1ccccc1 [Compound 15] ; system: B. subtilis ATCC 6633
Response: 2000 µg/mL

Request: // fetch MIC for CCN(CC)Cc1nc2ccccc2c(=O)n1N=Cc1ccccc1 [Compound 9] ; system: B. subtilis ATCC 6633
Response: 2000 µg/mL

Request: // fetch MIC for COc1cc(C=Nn2c(CN3CCCC3)nc3ccccc3c2=O)cc(OC)c1OC [Compound 19] ; system: B. subtilis ATCC 6633
Response: 1000 µg/mL

Request: // fetch MIC for COc1ccc(C=Nn2c(CN3CCCC3)nc3ccccc3c2=O)cc1 [Compound 18] ; system: B. subtilis ATCC 6633
Response: 1500 µg/mL

###

measuredAttribute: melting point (°C)
State just the number; it will be interpreted in °C.

1. O=c1c2ccccc2nc(CN2CCCCC2)n1N=Cc1ccc(Cl)cc1 = 130
2. Cc1ccc(C=Nn2c(CN3CCCCC3)nc3ccccc3c2=O)cc1 = 124
3. CCN(CC)Cc1nc2ccccc2c(=O)n1N=Cc1cc(OC)c(OC)c(OC)c1 = 116
4. Cc1ccc(C=Nn2c(CN3CCOCC3)nc3ccccc3c2=O)cc1 = 128
5. CCN(CC)Cc1nc2ccccc2c(=O)n1N=Cc1ccc(C)cc1 = 74

In the following, a different molecule is considered.
Request: Indicate its recorded melting point; the molecule in question is O=c1c2ccccc2nc(CN2CCCCC2)n1N=Cc1ccccc1
Response: 98

###

measuredAttribute: melting point

1. O=c1c2ccccc2nc(CN2CCOCC2)n1N=Cc1ccc([N+](=O)[O-])cc1 [Compound 32] = 200 °C
2. COc1cc(C=Nn2c(CN3CCCCC3)nc3ccccc3c2=O)cc(OC)c1OC [Compound 25] = 112 to 114 °C
3. COc1cc(C=Nn2c(CN3CCOCC3)nc3ccccc3c2=O)cc(OC)c1OC [Compound 31] = 155 °C
4. COc1ccc(C=Nn2c(CN3CCCCC3)nc3ccccc3c2=O)cc1 [Compound 24] = 138 °C

In the following, a different molecule is considered.
Request: Indicate its recorded melting point; the molecule in question is CCN(CC)Cc1nc2ccccc2c(=O)n1N=Cc1ccc(Cl)cc1 [Compound 10]
Response: 124 °C
